test system: HEK-293T; assay: Multiplex assay against HEK293T; format: toxicity, cell-based; details: human, 12 h, 1 µM, compound concentration 1 uM
Some molecules, each annotated with its measured Population Hoechst High Intensity Objects (%).
Value type: Population Hoechst High Intensity Objects (%)

>>> obs_value("CN1C[C@H](C(=O)N[C@]2(C)O[C@@]3(O)[C@@H]4CCCN4C(=O)[C@H](Cc4ccccc4)N3C2=O)C[C@@H]2c3cccc4[nH]cc(c34)C[C@H]21.CS(=O)(=O)O [DIHYDROERGOTAMINE MESYLATE]")
5
>>> obs_value("O=C(Nc1cc(C(F)(F)F)ccc1N1CCCCC1)c1ccncc1")
0
>>> obs_value("Cn1ncnc1COc1nn2c(-c3cc(F)ccc3F)nnc2cc1C(C)(C)C")
0
>>> obs_value("Cc1ccc(-c2ccc(F)cc2COc2ccc(CCC(=O)O)cc2)cc1")
9
>>> obs_value("Nc1nccc(-c2ccn3c(N)nccc23)n1")
0
>>> obs_value("CN1CCN(c2cc(-c3ccccc3)nc(N)n2)CC1")
6
>>> obs_value("c1cc(OCCCN2CCCCC2)ccc1CN1CCCCC1")
5

----------
Reported Population Hoechst High Intensity Objects (%) by item:
system: Fibroblast; assay: Multiplex assay against human fibroblast; assay type: toxicity, cell-based; details: 48 h, 1 µM, compound concentration 1 uM
Value type: Population Hoechst High Intensity Objects (%)

>>> obs_value("COC[C@@H](CC(C)C)NC1=N/C(=C\\c2ccc3ncsc3c2)C(=O)N1C")
0
>>> obs_value("COc1cc(Nc2ncc3c(n2)-c2ccc(Cl)cc2C(c2c(F)cccc2OC)=NC3)ccc1C(=O)O")
5
>>> obs_value("Cl.O=S(=O)(c1cccc2c(I)cccc12)N1CCCNCC1")
0
>>> obs_value("CC(=O)NCC(=O)N1[C@@H]2CC[C@H]1c1ccc(Nc3ncc(C(F)(F)F)c(NC4CCC4)n3)cc12")
0
>>> obs_value("O=C1CSC(=O)N1C(CCc1ccncc1)COc1ccc(-c2cccc([N+](=O)[O-])c2)cc1 (centres undefined)")
0
>>> obs_value("Cc1cc(C)c(NC(=O)C2CC3CCC2C3)c(C)c1 (centres undefined)")
0
>>> obs_value("CCOC(=O)c1cnn(-c2ccc(NC(=O)C(Cl)=C(Cl)Cl)cc2)c1C(F)(F)F")
0
>>> obs_value("COC(=O)c1ccc2c(c1)NC(=O)/C2=C(\\Nc1ccc(N(C)C(=O)CN2CCN(C)CC2)cc1)c1ccccc1")
0
>>> obs_value("O=C(NCc1cccc(O)c1)Nc1nc(-c2ccncc2)cs1")
0
>>> obs_value("C[C@H](C[C@H](N)C(=O)O)C(=O)O [2S,4R-4-METHYLGLUTAMATE]")
0
>>> obs_value("CN(C)Cc1cccc(NC(=C2C(=O)Nc3cc(C(=O)N(C)C)ccc32)c2ccccc2)c1")
0
>>> obs_value("Cc1cc(C)cc(C(=O)NOCCCCCC(=O)NO)c1")
0
>>> obs_value("Cc1cccc(F)c1C(=O)Nc1cnc(-c2cc3c(cc2Cl)OC(F)(F)O3)cn1")
0
>>> obs_value("CC(C)(O)c1cnc(N2C[C@@]3(CCC[C@](C)(Cn4cnc5ccc(C#N)cc54)C3)OC2=O)cn1")
0

----------
test system: U2OS; test: Multiplex assay against U2OS; format: toxicity, cell-based; conditions: human, 12 h, 1 µM, compound concentration 1 uM
Value type: Population Mitochondria Different-Phenotype (%)

>>> obs_value("O=C(Nc1cc(-c2ccccc2)nn1-c1ccccc1F)c1ccc([N+](=O)[O-])cc1")
4
>>> obs_value("CCCN1CCC[C@@H]2Cc3n[nH]cc3C[C@H]21.Cl [QUINPIROLE HYDROCHLORIDE]")
1
>>> obs_value("CCOc1c2c(c(OCC)c3ncccc13)CN(c1ccc(CS(=O)(=O)NC(=O)Cc3ccccc3OC)cc1C)C2=O")
3
>>> obs_value("c1cc(OCCCN2CCCCC2)ccc1CN1CCCCC1")
3
>>> obs_value("COc1c(Nc2ccc(S(C)(=O)=O)nc2C)ncnc1OC1CCN(C(=O)OC(C)C)CC1")
1

----------
test system: HEK-293T; assay: Multiplex assay against HEK293T; assay type: toxicity, cell-based; conditions: human, 24 h, 1 µM, compound concentration 1 uM
# Population Membrane Permeable-Phenotype (%) listing for each entry below
Value type: Population Membrane Permeable-Phenotype (%)

>>> obs_value("Cc1nn(C)c2nc(NNC(=O)Nc3cc(Cl)nc(Cl)c3)cc(C(C)C)c12")
0
>>> obs_value("CC(=O)Nc1cccc2c1c(Sc1ccc(Cl)cc1)c(C)n2CC(=O)O")
0
>>> obs_value("CN1CCN(c2cc(-c3ccccc3)nc(N)n2)CC1")
1
>>> obs_value("CN1C[C@H](C(=O)N[C@]2(C)O[C@@]3(O)[C@@H]4CCCN4C(=O)[C@H](Cc4ccccc4)N3C2=O)C[C@@H]2c3cccc4[nH]cc(c34)C[C@H]21.CS(=O)(=O)O [DIHYDROERGOTAMINE MESYLATE]")
0
>>> obs_value("Cc1cc(Nc2ncc(Cl)c(Nc3ccccc3S(=O)(=O)C(C)C)n2)c(OC(C)C)cc1C1CCNCC1")
0
>>> obs_value("Cc1sc2c(c1C)C(c1ccc(Cl)cc1)=N[C@@H](CC(=O)NCCCCCCCCNC(=O)COc1cccc3c1C(=O)N(C1CCC(=O)NC1=O)C3=O)c1nnc(C)n1-2 (some centres not stated)")
0
>>> obs_value("CN(C)C(=O)Cn1cc(-c2ccc(-c3nnc4ccccn34)cc2)cn1")
0
>>> obs_value("NCCc1cn(S(=O)(=O)c2c(Cl)nc3sccn23)c2ccccc12.O=C(O)C(=O)O")
1
>>> obs_value("COc1cc(Nc2ncc3c(n2)-c2ccc(Cl)cc2C(c2c(F)cccc2OC)=NC3)ccc1C(=O)O")
0
>>> obs_value("CN1CCN(c2ccc(Nc3c4ccccc4nc4ccccc34)cc2)CC1.Cl.Cl.O")
0
>>> obs_value("CN(C)C/C=C/C(=O)Nc1ccc(C(=O)N2CCCC(Nc3ncc(Cl)c(-c4c[nH]c5ccccc45)n3)C2)cc1 (configuration not stated)")
0
>>> obs_value("CCCN1CCC[C@@H]2Cc3n[nH]cc3C[C@H]21.Cl [QUINPIROLE HYDROCHLORIDE]")
0

----------
tested on: HEK-293T; test: Multiplex assay against HEK293T; type: toxicity, cell-based; conditions: human, 24 h, 1 µM, compound concentration 1 uM
Population Hoechst High Intensity Objects (%) reference
Value type: Population Hoechst High Intensity Objects (%)

>>> obs_value("Cc1cc(C)c(NC(=O)C2CC3CCC2C3)c(C)c1 (centres undefined)")
"0%"
>>> obs_value("CC(C)(O)c1cnc(N2C[C@@]3(CCC[C@](C)(Cn4cnc5ccc(C#N)cc54)C3)OC2=O)cn1 [GSK2798745]")
"0%"
>>> obs_value("CN1CCN(c2cc(-c3ccccc3)nc(N)n2)CC1")
"4%"
>>> obs_value("COc1ccccc1N1CCN(CCCCNC(=O)c2ccc3ccccc3c2)CC1.Cl")
"6%"
>>> obs_value("Cn1ncnc1COc1nn2c(-c3cc(F)ccc3F)nnc2cc1C(C)(C)C")
"0%"
>>> obs_value("CN1CCN(c2nc3cc(C(F)(F)F)ccc3n3cccc23)CC1.O=C(O)/C=C\\C(=O)O.O=C(O)/C=C\\C(=O)O")
"6%"
>>> obs_value("CC(=O)NCC(=O)N1[C@@H]2CC[C@H]1c1ccc(Nc3ncc(C(F)(F)F)c(NC4CCC4)n3)cc12 [PF-03814735]")
"0%"
>>> obs_value("O=C(Nc1cc(C(F)(F)F)ccc1N1CCCCC1)c1ccncc1")
"0%"
>>> obs_value("COCCNc1cc(NC(=O)N2CCCc3cc(CN4CCN(C)CC4=O)c(C=O)nc32)ncc1C#N [FGF401]")
"0%"

----------
system: HEK-293T; experiment: Multiplex assay against HEK293T; format: toxicity, cell-based; details: human, 48 h, 1 µM, compound concentration 1 uM
Value type: Population Pyknosed Nuclei (%)

>>> obs_value("O=C(Nc1cc(-c2ccccc2)nn1-c1ccccc1F)c1ccc([N+](=O)[O-])cc1")
"7%"
>>> obs_value("COc1cc(Nc2ncc3c(n2)-c2ccc(Cl)cc2C(c2c(F)cccc2OC)=NC3)ccc1C(=O)O [ALISERTIB]")
"5%"
>>> obs_value("COc1cc2nc(N3CCN(C(=O)COc4c(OC)cccc4C(C)C)CC3)nc(N)c2cc1OC.Cl.Cl")
"6%"
>>> obs_value("Cc1ccc(-c2ccc(F)cc2COc2ccc(CCC(=O)O)cc2)cc1")
"5%"
>>> obs_value("Cc1c(Cc2ccc3ccccc3n2)c2cc(F)ccc2n1CC(=O)O [TIMAPIPRANT]")
"8%"
>>> obs_value("CC(=O)Nc1cccc2c1c(Sc1ccc(Cl)cc1)c(C)n2CC(=O)O [AZD1981]")
"6%"
>>> obs_value("CN1CCN(c2nc3cc(C(F)(F)F)ccc3n3cccc23)CC1.O=C(O)/C=C\\C(=O)O.O=C(O)/C=C\\C(=O)O")
"7%"
